Organism: Rattus norvegicus
ASSAY_COMMENT: Inhibitory effect on GSH elevation elicited by compound in rat hepatocytes in the presence of buthionine sulfoximine (BSO) (0.2 mM)
Type: functional, Hepatocyte
The following compounds are shown together with reported [GSH] values.
PROPERTY_LABEL: [GSH] (nmol/10^6 cells)

>  <COMPOUND>
O=C(O)[C@@H]1CSC(C(O)C(O)C(O)C(O)CO)N1 (stereo in doubt; 1h)

>  <PROPERTY_LABEL>
[GSH]

>  <SCALE_UNIT>
nmol/10^6 cells

>  <MEASURED_NUMBER>
18.9

$$$$
>  <COMPOUND>
O=C(O)[C@@H]1CSC(C(O)C(O)C(O)C(O)CO)N1 (stereo in doubt; 1g)

>  <PROPERTY_LABEL>
[GSH]

>  <SCALE_UNIT>
nmol/10^6 cells

>  <MEASURED_NUMBER>
25.4

$$$$
>  <COMPOUND>
O=C(O)[C@@H]1CSC(C(O)CO)N1 (stereo partly drawn)

>  <PROPERTY_LABEL>
[GSH]

>  <SCALE_UNIT>
nmol/10^6 cells

>  <MEASURED_NUMBER>
18.3

$$$$
>  <COMPOUND>
O=C(O)[C@@H]1CSC(C(O)C(O)C(O)CO)N1 (stereo in doubt; 1c)

>  <PROPERTY_LABEL>
[GSH]

>  <SCALE_UNIT>
nmol/10^6 cells

>  <MEASURED_NUMBER>
22.4

$$$$
>  <COMPOUND>
O=C(O)[C@@H]1CSC(C(O)C(O)C(O)CO)N1 (stereo in doubt; 1b)

>  <PROPERTY_LABEL>
[GSH]

>  <SCALE_UNIT>
nmol/10^6 cells

>  <MEASURED_NUMBER>
19.5

$$$$
>  <COMPOUND>
O=C(O)[C@@H]1CSC(C(O)C(O)C(O)CO)N1 (stereo in doubt; 1e)

>  <PROPERTY_LABEL>
[GSH]

>  <SCALE_UNIT>
nmol/10^6 cells

>  <MEASURED_NUMBER>
22.6

$$$$
>  <COMPOUND>
O=C(O)[C@@H]1CSC(C(O)C(O)C(O)C(O)CO)N1 (stereo in doubt; 1f)

>  <PROPERTY_LABEL>
[GSH]

>  <SCALE_UNIT>
nmol/10^6 cells

>  <MEASURED_NUMBER>
23.2

$$$$
>  <COMPOUND>
O=C(O)[C@@H]1CSC(C(O)C(O)C(O)CO)N1 (stereo in doubt; 1d)

>  <PROPERTY_LABEL>
[GSH]

>  <SCALE_UNIT>
nmol/10^6 cells

>  <MEASURED_NUMBER>
16.2

$$$$
